Listed next: entries and their corresponding growth inhibition.
# Assay details: NCI Yeast Anticancer Drug Screen. Data for the cln2 rad14 strain (AID 165);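 further: 0% = growth equal to vehicle treated cultures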
# Conditions used: S. cerevisiae cln2 rad14 strain, at 50.0 µM, stronger effect = higher value
# Description: Growth inhibition of yeast strains with defined genetic alterations is measured as a screen for potential anti-cancer activity. Selected strains with alterations in DNA damage repair or cell cycle control were exposed to compounds and growth inhibition was measured relative to vehicle treated controls. The strain used in this assay is cln2 rad14
About 79,000 compounds went through this panel and 15% of them were active in at least one assay; those are over-represented in the sample as a whole.
Field: numeric (%). Do not append units.

Solved entries:
COC(=O)C(=O)C(/C=N/C(=S)NC1CCCCC1)=C(\O)c1ccc(F)cc1; -5.05
N/N=C(/CC(O)(C(F)(F)F)C(F)(F)F)c1ccccc1; -3.7
C1CC[N+]2(CC1)CCCCC2; 14.2

growth inhibition for O=[N+]([O-])c1ccc(C2ON2C2CCCCC2)cc1 (stereo unspecified) is -22.3

growth inhibition for c1ccc2c(SCN3CCOCC3)cccc2c1 (tested in a mixture with another compound) is 40.9

growth inhibition for O=C1c2cc3c(cc2C(=O)c2ncccc21)CCCC3 is 10.3

growth inhibition for O=C(CN1C(=O)c2cccc3c(Br)ccc(c23)C1=O)c1ccc(F)cc1 is 18.7

growth inhibition for CCC(=O)Oc1ccc([N+](=O)[O-])cc1[N+](=O)[O-] is 26.6

Where do these numbers come from? They come from PubChem BioAssay (NCI).
